# Test system: Human coronavirus OC43
# procedure-details: Antiviral activity against Human coronavirus OC43 infected in Vero cells assessed as reduction in viral yield preincubated with virus for 1 hr followed by washout and compound treatment and measured after 3 days by qRT-PCR analysis
# Assay type: functional, organism-based
# assay-context: Betacoronavirus 1, Vero
So I've got a bunch of molecules here, and I need their pEC50 values.
Answers are plain numbers, as −log10 of the molar value.

Field: example entries. Status: answers known.
INSERT INTO assay_data (molecule, readout_number) VALUES
  ('CC(C)C[C@H](NC(=O)[C@H](Cc1cccc2ccccc12)NC(=O)OCc1ccccc1)C(=O)N[C@H](/C=C(\C#N)C(N)=O)C[C@@H]1CCCNC1=O', 6.05),
  ('CC(C)C[C@H](NC(=O)[C@H](Cc1cccc2ccccc12)NC(=O)OCc1ccccc1)C(=O)N[C@H](C=O)Cn1ccnn1', 4.27),
  ('CC(C)C[C@H](NC(=O)[C@H](Cc1cccc2ccccc12)NC(=O)c1cc(C(F)(F)F)on1)C(=O)N[C@H](C=O)C[C@@H]1CCCNC1=O', 6.15),
  ('Cc1cc(C(=O)N[C@@H](Cc2cccc3ccccc23)C(=O)N[C@@H](CC(C)C)C(=O)N[C@H](C=O)C[C@@H]2CCCNC2=O)no1', 7.00),
  ('CCC(CC)COC(=O)[C@H](C)N[P@](=O)(OC[C@H]1O[C@@](C#N)(c2ccc3c(N)ncnn23)[C@H](O)[C@@H]1O)Oc1ccccc1', 8.00);

Dear colleague, could you please provide pEC50 for the molecules listed below?
1. Cc1ccsc1C(=O)N[C@@H](Cc1cccc2ccccc12)C(=O)N[C@@H](CC(C)C)C(=O)N[C@H](C=O)C[C@@H]1CCCNC1=O
2. CC(C)C[C@H](NC(=O)[C@H](Cc1cccc2ccccc12)NC(=O)OCc1ccccc1)C(=O)N[C@H](C=O)CNC(=O)N1CCC1
3. CCOC(=O)/C=C/[C@H](C[C@@H]1CCCNC1=O)NC(=O)[C@H](CC(C)C)NC(=O)[C@H](Cc1cccc2ccccc12)NC(=O)c1cc(C)on1

1: 6.52; 2: 4.74; 3: 5.14

Query pEC50 for Cc1cc(C(=O)N[C@@H](Cc2cccc3ccccc23)C(=O)N[C@@H](CC(C)C)C(=O)N[C@@H](C[C@@H]2CCCNC2=O)C(O)S(=O)(=O)[O-])no1.[Na+] (some centres undefined)
6.52

###

# procedure-details: Cytotoxicity against human PBMC cells assessed as reduction in cell viability
# Type: toxicity, cell-based
# assay-context: PBMC cells
quantity: CC50

Query CC50 for CC(C)(C)[C@H](NC(=O)C(F)(F)F)C(=O)N1C[C@H]2[C@@H]([C@H]1C(=O)N[C@H](C#N)C[C@@H]1CCNC1=O)C2(C)C
> 100 µM

###

# Test system: Calu-3
# procedure-details: Cytotoxicity against human Calu-3 cells assessed as reduction in cell viability
# Assay type: toxicity, cell-based
# assay-context: calu-3
So I've got a bunch of molecules here, and I need their CC50 values.

INSERT INTO measurements (molecule, quantity, result) VALUES
  ('Cc1cc(C(=O)N[C@@H](Cc2cccc3ccccc23)C(=O)N[C@@H](CC(C)C)C(=O)N[C@H](C=O)C[C@@H]2CCCNC2=O)no1', 'CC50', '> 100 µM');

Now consider the entry below.
Query CC50 for Cc1cc(C(=O)N[C@@H](Cc2cccc3ccccc23)C(=O)N[C@@H](CC(C)C)C(=O)N[C@@H](C[C@@H]2CCCNC2=O)C(O)S(=O)(=O)[O-])no1.[Na+] (some centres not stated)
> 100 µM
